Target: MAdCAM-IgG1 Fc fusion protein (human)
Sequence (chain, as listed by the source limits assumed): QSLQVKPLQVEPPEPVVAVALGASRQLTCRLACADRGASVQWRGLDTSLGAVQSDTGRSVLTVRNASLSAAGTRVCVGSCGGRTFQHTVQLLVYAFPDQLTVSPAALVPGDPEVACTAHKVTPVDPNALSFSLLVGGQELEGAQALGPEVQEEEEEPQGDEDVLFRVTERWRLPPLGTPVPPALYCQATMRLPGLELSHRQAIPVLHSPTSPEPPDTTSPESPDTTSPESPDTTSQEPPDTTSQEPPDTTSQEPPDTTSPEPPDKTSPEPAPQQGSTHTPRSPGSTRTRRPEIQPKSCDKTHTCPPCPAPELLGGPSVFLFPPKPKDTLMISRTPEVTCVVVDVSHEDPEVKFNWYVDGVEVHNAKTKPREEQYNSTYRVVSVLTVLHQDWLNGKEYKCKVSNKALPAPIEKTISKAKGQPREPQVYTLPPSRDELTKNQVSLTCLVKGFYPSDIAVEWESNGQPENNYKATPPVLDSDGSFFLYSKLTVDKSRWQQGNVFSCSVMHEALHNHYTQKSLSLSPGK
Experiment: cell-based or functional assay
Measurement Kind: Mean IC50, JY cell adhesion to MAdCAM IgG1 Fc fusion

See these solved cases before continuing.
| Binder | Result |
| --- | --- |
| anti-MAdCAM monoclonal antibody 6.22.2 (antibody, human IgG4, kappa, V domains shown, human IgG4 kappa from hybridoma 6.22.2) VH: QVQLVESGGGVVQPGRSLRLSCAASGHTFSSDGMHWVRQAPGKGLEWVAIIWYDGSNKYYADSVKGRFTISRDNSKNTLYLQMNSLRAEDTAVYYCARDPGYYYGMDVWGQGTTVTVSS VL: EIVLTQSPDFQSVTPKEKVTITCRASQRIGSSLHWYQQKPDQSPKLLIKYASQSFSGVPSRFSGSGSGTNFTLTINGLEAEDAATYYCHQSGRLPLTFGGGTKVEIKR | 0.018 µg/mL |
| anti-MAdCAM monoclonal antibody 6.73.2 (antibody, human IgG4, kappa, V domains shown, human IgG4 kappa from hybridoma 6.73.2) VH: EVQLLESGGDLVQPGGSLRLSCAASGFTFRSYAMNWVRQAPGKGLEWVSVISGRGGTTYYADSVKGRFTISRDNSKNTLYLQMNSLRAEDAAVYYCAKIAVAGEGLYYYYGMDVWGQGTTVTVSS VL: DIQMTQSPSSLSASVGDRVTFTCRASQNITNYLNWYQQKPGKAPKLLIYAASSLPRGVPSRFRGSGSGTDFTLTISSLQPEDFATYYCQQSYSNPPECGFGQGTTLDIKR | 0.02 µg/mL |

In the following, a different binder is considered.
Query string: Return reported Mean IC50, JY cell adhesion to MAdCAM IgG1 Fc fusion; argument: anti-MAdCAM monoclonal antibody 6.34.2 (antibody, human IgG4, kappa, V domains shown, human IgG4 kappa from hybridoma 6.34.2) VH: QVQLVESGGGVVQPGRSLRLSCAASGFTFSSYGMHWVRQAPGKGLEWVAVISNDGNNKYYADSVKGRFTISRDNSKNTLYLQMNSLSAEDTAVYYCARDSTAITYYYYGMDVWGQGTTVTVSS VL: DIQMTQSPSSLSASVGDRVTITCRASQNISSYLNWFQQKPGKAPKLLIYAASGLKRGVPSRFSGSGSGTDFTLTIRTLQPDDFATYSCHQSYSLPFTFGPGTKVDIKR
Result string: 0.013 µg/mL
